System: 128128-338-R-J1-PDC spheroids, viability % test/control;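 also: spheroids exposed to compounds for 7 days; 100% = DMSO vehicle wells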
Assay: Anticancer human tumor 128128-338-R-J1-PDC patient-derived melanoma cell line growth inhibition [TAK]
Conditions: second compound 9.49 µM; first compound 0.000316 µM; stronger effect = lower value; spheroids with HUVEC and MSC
Method: Combinatorial screen of targeted agents with TAK-243 and ipatasertib in multi-cell type tumor spheroids […] Compounds. […] If the clinical Cmax for an agent had not been determined, the highest concentration tested was 10 microM. NCI60 Cell Culture. […] The optimal seeding densities for each of the cell lines at each time point assessed were determined prior to performing the concentration response studies. […]
compounds and their reported viability, T/C
PROPERTY MEASURED: viability, T/C (%)

COMPOUND | TARGET OR SYSTEM | PROPERTY MEASURED | REPORTED
COC1CC2CCC(C)C(O)(O2)C(=O)C(=O)N2CCCCC2C(=O)OC(C(C)CC2CCC(OCCO)C(OC)C2)CC(=O)C(C)C=C(C)C(O)C(OC)C(=O)C(C)CC(C)C=CC=CC=C1C (centres undefined) + CC(C)NCC(C(=O)N1CCN(c2ncnc3c2C(C)CC3O)CC1)c1ccc(Cl)cc1 | 128128-338-R-J1-PDC spheroids, viability % test/control | viability, T/C | 56.3
CC(C)n1nc(-c2ccc3oc(N)nc3c2)c2c(N)ncnc21 + CC(C)NCC(C(=O)N1CCN(c2ncnc3c2C(C)CC3O)CC1)c1ccc(Cl)cc1 | 128128-338-R-J1-PDC spheroids, viability % test/control | viability, T/C | 66.6
CC(C)CC(NC(=O)C(Cc1ccccc1)NC(=O)c1cnccn1)B(O)O (centres undefined) + CC(C)NCC(C(=O)N1CCN(c2ncnc3c2C(C)CC3O)CC1)c1ccc(Cl)cc1 | 128128-338-R-J1-PDC spheroids, viability % test/control | viability, T/C | 72.5
CC(C)CC(NC(=O)CNC(=O)c1cc(Cl)ccc1Cl)B1OC(=O)CC(CC(=O)O)(C(=O)O)O1 (centres undefined) + CC(C)NCC(C(=O)N1CCN(c2ncnc3c2C(C)CC3O)CC1)c1ccc(Cl)cc1 | 128128-338-R-J1-PDC spheroids, viability % test/control | viability, T/C | 71
